Cited source for all entries: patent US9902736B2

Test system: PANC-1
Assay: Solid tumor cell growth inhibition, MTT, 72 h
Assay type: cell-based
Settings: Homo sapiens
PROPERTY: IC50 (µg/mL)

INSERT INTO measurements (molecule, unit_spec, quantitative_result) VALUES
  ('C=C1C(=O)[C@]23[C@H](OC(=O)c4ccc(Cl)cc4)[C@H]1CC[C@H]2[C@@]12CO[C@@]3(O)[C@@H](O)[C@@H]1C(C)(C)CC[C@@H]2OC(C)=O', 'µg/mL', 1.69),
  ('C=C1C(=O)[C@]23[C@H](OC(=O)c4ccccc4)[C@H]1CC[C@H]2[C@@]12CO[C@@]3(O)[C@@H](O)[C@@H]1C(C)(C)CCC2=O', 'µg/mL', 1.79),
  ('C=C1C(=O)[C@]23[C@H](OC(=O)c4ccc(OC)cc4)[C@H]1CC[C@H]2[C@@]12CO[C@@]3(O)[C@@H](O)[C@@H]1C(C)(C)CCC2OC(C)=O (stereo partly shown)', 'µg/mL', 1.69),
  ('C=C1C(=O)[C@]23[C@H](OC(=O)c4ccccc4Cl)[C@H]1CC[C@H]2[C@@]12CO[C@@]3(O)[C@@H](O)[C@@H]1C(C)(C)CCC2=O', 'µg/mL', 2.34),
  ('C=C1C(=O)[C@]23[C@H](OC(=O)c4ccc(C)cc4)[C@H]1CC[C@H]2[C@@]12CO[C@@]3(O)[C@@H](O)[C@@H]1C(C)(C)CCC2OC(C)=O (stereo partly shown)', 'µg/mL', 1.31),
  ('C=C1C(=O)[C@]23[C@H](OC(=O)c4cccc(C)c4)[C@H]1CC[C@H]2[C@@]12CO[C@@]3(O)[C@@H](O)[C@@H]1C(C)(C)CCC2=O', 'µg/mL', 1.73),
  ('C=C1C(=O)[C@]23[C@H](OC(=O)c4ccccc4Br)[C@H]1CC[C@H]2[C@@]12CO[C@@]3(O)[C@@H](O)[C@@H]1C(C)(C)CCC2=O', 'µg/mL', 2.32);

* * *

Tested on: K562/ADR
Assay: Leukemia cell growth inhibition, MTT, 72 h
Type: cell-based
Conditions: Homo sapiens
PROPERTY: IC50 (mg/L)

INSERT INTO measurements (compound, test_target, property, unit_spec, quantitative_result) VALUES
  ('C=C1C(=O)[C@]23[C@H](OC(=O)c4cccc(C)c4)[C@H]1CC[C@H]2[C@@]12CO[C@@]3(O)[C@@H](O)[C@@H]1C(C)(C)CCC2=O [BS-OR-008]', 'K562/ADR', 'IC50', 'mg/L', 0.52),
  ('C=C1C(=O)[C@]23[C@H](OC(=O)c4ccc(C)cc4)[C@H]1CC[C@H]2[C@@]12CO[C@@]3(O)[C@@H](O)[C@@H]1C(C)(C)CCC2=O [BS-OR-004]', 'K562/ADR', 'IC50', 'mg/L', 0.41),
  ('C=C1C(=O)[C@]23[C@H](OC(=O)c4cccs4)[C@H]1CC[C@H]2[C@@]12CO[C@@]3(O)[C@@H](O)[C@@H]1C(C)(C)CCC2=O [BS-OR-007]', 'K562/ADR', 'IC50', 'mg/L', 0.47),
  ('C=C1C(=O)[C@]23[C@H](OC(=O)c4ccc(OC)cc4)[C@H]1CC[C@H]2[C@@]12CO[C@@]3(O)[C@@H](O)[C@@H]1C(C)(C)CCC2=O [BS-OR-005]', 'K562/ADR', 'IC50', 'mg/L', 0.4);

* * *

Test system: CaEs-17
Assay: Solid tumor cell growth inhibition, MTT, 72 h
Type: cell-based
Details: Homo sapiens, CaEs17
Protocol: 6000 well-growing human solid tumor cells were obtained and inoculated into wells of a 96-well cell culture plate. The culture medium was DMEM High Glucose cell culture medium containing 10% fetal bovine serum. The plate was placed in a carbon dioxide cell incubator (5% CO2) at 37° C. and incubated for 24 hours. […] Then the viable cell concentration was determined by MTT method.
PROPERTY: IC50 (µg/mL)

INSERT INTO results (mol_smiles, quantitative_result) VALUES
  ('C=C1C(=O)[C@]23[C@H](OC(=O)c4cccnc4)[C@H]1CC[C@H]2[C@@]12CO[C@@]3(O)[C@@H](O)[C@@H]1C(C)(C)CCC2=O', 1.41);

P: C=C1C(=O)[C@]23[C@H](OC(=O)c4ccncc4)[C@H]1CC[C@H]2[C@@]12CO[C@@]3(O)[C@@H](O)[C@@H]1C(C)(C)CCC2=O
Q: C=C1C(=O)[C@]23[C@H](OC(=O)c4ccc(Cl)cc4)[C@H]1CC[C@H]2[C@@]12CO[C@@]3(O)[C@@H](O)[C@@H]1C(C)(C)CCC2=O
Could you please tell me which of these two has the higher IC50: P or Q ? // output: label of the selected item
P
(P: 2.01 µg/mL, Q: 1.1 µg/mL)
